# Tested on: MALME-3M melanoma
# test-description: NCI tumour cell line growth inhibition, 48 h; in the data active = GI50 below about 0.43 µM; inactive = the rest
Select the correct class. Options are y = active, n = inactive and nothing else.

input: Hey, what did the test say about COc1cc(/C=C/C(=O)N2CCN(C(=O)c3cc(OC)c(OC)c(OC)c3)CC2)ccc1OCCCOc1cc2c(cc1OC)C(=O)N1CCC[C@H]1C=N2 ?
output: y

input: Next: CN1CCN(Cc2ccc(NC(=O)c3cccc(C#Cc4cnc(N)c5ncccc45)c3F)cc2C(F)(F)F)CC1
output: n

input: Next: C[C@@H](Oc1ccc(C(=O)NS(=O)(=O)C(C)(C)C)cc1C(F)(F)F)c1ccc(Oc2ccccc2)cn1
output: n

input: Next: Cc1c(O)c2c(c(O)c1Br)C(=O)C=CC2=O
output: n

---

# Test system: SW-620 colon
# test-description: NCI tumour cell line growth inhibition, 48 h
readout-kind: GI50

input: Fill blank: measured GI50 of the compound N#C[Se]CCCNS(=O)(=O)C1CC2C=CC1C2 (configuration not stated) is ____.
output: 1790 nM

input: Next: COc1cc2c(cc1Nc1nc(Nc3cccc(F)c3C(N)=O)c3cc[nH]c3n1)N(C(=O)CN1CCN(C(C)C)CC1)CC2
output: 2810 nM

input: Next: CN1CCN(Cc2ccc(NC(=O)c3cccc(C#Cc4cnc(N)c5ncccc45)c3F)cc2C(F)(F)F)CC1
output: 620 nM

input: Next: Cn1c(NCC(O)CN2CCCC2)cc(=O)n(C)c1=O (configuration not stated)
output: > 100000 nM

input: Next: Cn1c(/C=C/[N+](=O)[O-])cc2ccccc21
output: 1670 nM

input: Next: COc1ccc(C2=NN(C(=O)c3cc(OC)c(OC)c(OC)c3)C(c3ccc(N(C)C)cc3)C2)cc1 (configuration not stated)
output: 427 nM

input: Next: C[C@@H](Oc1ccc(C(=O)NS(=O)(=O)C(C)(C)C)cc1C(F)(F)F)c1ccc(Oc2ccccc2)cn1
output: 3180 nM

---

# Tested on: IGROV1 ovarian
# test-description: NCI tumour cell line growth inhibition, 48 h; in the data active means GI50 below about 0.43 µM; inactive means the rest
Select the correct class. Options are yes (1) (active), no (0) (inactive) and nothing else.

Reference set, count: 5
[
  {
    "molecule": "Cc1ccc(Cl)c(Nc2ccccc2C(=O)O)c1Cl",
    "system-under-test": "IGROV1 ovarian",
    "label": "no (0)"
  },
  {
    "molecule": "O=C1c2cccc(NCCN=Cc3ccccc3O)c2C(=O)c2c(NCCN=Cc3ccccc3O)cccc21",
    "system-under-test": "IGROV1 ovarian",
    "label": "yes (1)"
  },
  {
    "molecule": "Oc1cc2ccccc2c(-c2c(O)c(O)cc3ccccc23)c1O",
    "system-under-test": "IGROV1 ovarian",
    "label": "yes (1)"
  },
  {
    "molecule": "COc1cc(/C=C2\\C[C@H]3[C@@H]4CC=C5C[C@@H](O)CC[C@]5(C)[C@H]4CC[C@]3(C)[C@H]2O)ccc1OCCCn1ccnc1",
    "system-under-test": "IGROV1 ovarian",
    "label": "no (0)"
  },
  {
    "molecule": "CC(=O)c1cc(C(=O)c2ccc3c(c2)Sc2ccccc2N3)c2cc(C)ccn12",
    "system-under-test": "IGROV1 ovarian",
    "label": "yes (1)"
  }
]

Could you now consider this next molecule?
input: Hey, what did the test say about CC(=O)N1N=C2/C(=C/c3ccc(Cl)cc3)CC(C)CC2C1c1ccc(Cl)cc1 (stereo unspecified) ?
output: no (0)
